Test system: M14 melanoma
Experiment: NCI-60 one-dose screen, 48 h
Details: 10 µM unless noted
Protocol: Growth inhibition of the M14 human tumor cell line is measured as a screen for anti-cancer activity. Cells are grown in 96 well plates and exposed to the test compound for 48 hours. Compounds are tested at a single concentration, which is 10^-5 M for most compounds. The reported endpoint is percent growth (GI% or GIPRCNT), where numbers from 0 - 100% represent growth inhibition, and numbers from -100% - 0 represent cell death. For example, a value of 40 represents 60% growth inhibition. […]
This is part of a sample that, as a whole, favours compounds with a hit. Of some 83,000 tested, about 20% had one in any assay. Active and inactive are the calls of the source. Rule for the calls: active = growth percent below 10; inactive = the rest.
Field 'call' accepts active, inactive

Exam item: Recorded test call requested for C=CCn1c(SCC(=O)Nc2ccc(C(=O)/C=C/c3ccc(OC)cc3)cc2)nnc1-c1ccccc1
Marked response: inactive

Exam item: Cc1cc2nc(-c3c(-c4ccc(F)cc4)nc4sccn34)[nH]c2cc1C , same question.
Marked response: inactive

Exam item: One more compound: CCOC(=O)C(=Cc1cccc(C#N)c1)C(=O)OCC
Marked response: inactive

Exam item: # repeat for O=C(O)C1CN(c2cccc(Cl)c2)N(c2cccc(Cl)c2)C1=O (stereo unspecified)
Marked response: inactive

Exam item: Can you check CC(C)[C@@]12C[C@@H](OC(=O)COC(=O)c3ccccc3)[C@@](C)(O1)[C@@H]1CC[C@@H](C)[C@H]1[C@@H]2OC(=O)/C=C/c1ccccc1 next?
Marked response: inactive

Exam item: Try CN1CCN(Cc2ccc(NC(=O)c3cncc(C#Cc4cncc5ncccc45)c3)cc2C(F)(F)F)CC1 next.
Marked response: active

Source of measurements: PubChem BioAssay (NCI)
